Where a name gives a salt, the structure may show the parent alone.
MEASURED_QUANTITY: melting point

*Q* Please indicate melting point recorded for `O=c1cc(-c2ccc(O)c(-c3cccs3)c2)oc2ncccc12`
*A* 273.5 to 275 °C

*Q* Please indicate melting point recorded for `COc1ccc(-c2cc(=O)c3cccnc3o2)cc1`
*A* 269 to 270 °C

*Q* Please indicate melting point recorded for O=c1cc(-c2ccncc2)oc2ncccc12 (as salt: hydrochloride)
*A* 248 to 250 °C

*Q* Please indicate melting point recorded for Nc1ccc(-c2cc(=O)c3cccnc3o2)cc1 (as salt: hydrochloride)
*A* 254 to 255 °C

*Q* Please indicate melting point recorded for `COc1cc(OC)c2c(N)nc(-c3cc(C)c(O)c(C)c3)cc2n1`
*A* 163.2 to 165.5 °C

*Q* Please indicate melting point recorded for O=c1cc(-c2ccc(O)nc2)oc2ccccc12 [EXAMPLE 13, 2-(6-Hydroxypyridin-3-yl)-chromen-4-one]
*A* 296 to 297 °C

*Q* Please indicate melting point recorded for CN(C)CCOc1ccc(-c2cc(=O)c3cccnc3o2)cc1 (as salt: hydrochloride) [EXAMPLE 27, dihydrochloride]
*A* 236 to 238 °C

*Q* Please indicate melting point recorded for `Cc1cc(-c2cc(=O)c3cccnc3o2)cc(C)c1OCC(=O)O`
*A* 280 °C

*Q* Please indicate melting point recorded for `O=c1cc(-c2ccc(O)c(F)c2)oc2ncccc12`
*A* 267 to 268 °C

*Q* Please indicate melting point recorded for `Cn1c(-c2ccc(O)c(F)c2)cc2ncccc2c1=O`
*A* 182 to 184 °C

*Q* Please indicate melting point recorded for `O=c1cc(-c2ccc(OCCO)cc2)oc2ncccc12`
*A* 157 to 159 °C

*Q* Please indicate melting point recorded for O=c1cc(-c2ccccc2)oc2ncc(CN3CCCC3)cc12 (as salt: hydrochloride)
*A* 294 to 296 °C

*Q* Please indicate melting point recorded for `COc1cccc2c(=O)[nH]c(-c3ccc(O)c(F)c3)cc12`
*A* 289 to 291 °C

*Q* Please indicate melting point recorded for `O=c1cc(-c2ccc(O)c(Cl)c2)oc2ncccc12`
*A* 259 to 262 °C

*Q* Please indicate melting point recorded for COc1cc(O)nc2cc(-c3cc(C)c(O)c(C)c3)[nH]c(=O)c12 (as salt: hydrochloride) [EXAMPLE 41, dihydrochloride]
*A* > 330 °C

*Q* Please indicate melting point recorded for O=c1[nH]c(-c2ccc(O)cc2)cc2ccccc12 [EXAMPLE 21, 3-(4-Hydroxyphenyl)-2H-isoquinolin-1-one]
*A* 239 to 241 °C

*Q* Please indicate melting point recorded for `COc1cc(OC)c2c(=O)[nH]c(-c3ccc(O)cc3)cc2c1`
*A* 245 to 247 °C

*Q* Please indicate melting point recorded for `COc1cc(-c2cc(=O)c3cccnc3o2)ccc1O`
*A* 253 to 255 °C

*Q* Please indicate melting point recorded for `O=c1cc(-c2ccc3nccnc3c2)oc2ncccc12`
*A* 272.3 to 274.8 °C

*Q* Please indicate melting point recorded for `O=c1[nH]c(-c2ccc(F)cc2)nc2ccc(CN3CCOCC3)cc12`
*A* 321.8 to 323.3 °C

*Q* Please indicate melting point recorded for `O=c1[nH]c2ccc(-c3cc(=O)c4ccccc4o3)cc2o1`
*A* 347.6 to 348.2 °C

*Q* Please indicate melting point recorded for `O=c1cc(-c2ccc3[nH]ncc3c2)oc2ncc(CN3CCOCC3)cc12`
*A* 293.1 to 293.2 °C

*Q* Please indicate melting point recorded for CN(C)Cc1ccc2c(=O)cc(-c3ccc(O)cc3)oc2n1 (as salt: hydrochloride) [EXAMPLE 26, dihydrochloride]
*A* 205 °C

*Q* Please indicate melting point recorded for O=c1cc(-c2ccccc2)oc2ncccc12 [EXAMPLE 22, 2-Phenyl-4H-pyrano[2,3-b]pyridin-4-one]
*A* 103 to 105 °C

*Q* Please indicate melting point recorded for `O=c1cc(-c2ccc(CO)cc2)oc2ncccc12`
*A* 218 to 219 °C

*Q* Please indicate melting point recorded for CNc1nc(-c2cc(C)c(O)c(C)c2)cc2ccc(CN3CCN(C)CC3)cc12 (as salt: hydrochloride) [EXAMPLE 43, trihydrochloride]
*A* 264 to 266 °C
